Data provenance is PubChem BioAssay.

Assay: yeast TOR pathway reporter LAP4-GFP change – cell-based, cherry picks, flow cytometry, mother/daughter gates, confirmation (AID 2271);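 note: ratio of sample to DMSO plate mean so 100% equals DMSO level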
Conditions: S. cerevisiae LAP4-GFP strain, 3 h, measured here: daughter cell gate response, at 10 µM, stronger effect = higher value, 100 means same as DMSO control
Measured GFP response relative to DMSO by item

Examples with their reported GFP response relative to DMSO follow.
molecule=O=C(NCCN1CCN(c2ccccc2)CC1)c1cccc(Br)c1 assay_value=101%
molecule=Cc1ccc(OCCCCn2ccnc2C)c(C)c1 assay_value=99.7%
molecule=CC(=O)Nc1ccccc1O assay_value=98.7%
molecule="c1ccc2c(c1)CCOC2CNCCCN1CCCCC1 (configuration not stated)" assay_value=97.2%

The recorded GFP response relative to DMSO for "O=C(/C=C/c1ccc(Cl)c([N+](=O)[O-])c1)c1cccnc1" is 192%

The recorded GFP response relative to DMSO for "CC(=O)OCC(=O)[C@H]1CC[C@H]2[C@@H]3CCC4=CC(=O)CC[C@]4(C)[C@H]3CC[C@]12C" is 99.3%

The recorded GFP response relative to DMSO for "COc1cc2c(cc1OC)C(c1ccccc1)=NCC2" is 88%

The recorded GFP response relative to DMSO for "CC(=O)[C@H]1CC[C@H]2[C@@H]3CCC4=CC(=O)CC[C@]4(C)[C@H]3CC[C@]12C" is 97.9%

The recorded GFP response relative to DMSO for "CCCCCCCC(=O)OCC(=O)[C@@]1(O)CC[C@H]2[C@@H]3CCC4=CC(=O)CC[C@]4(C)[C@H]3[C@@H](O)C[C@@]21C" is 92.9%

====

Target: Integrin beta-1 (Homo sapiens) + Integrin alpha-4 (Homo sapiens) (UniProt P13612+P05556)
Sequence (P05556 whole entry, looked up): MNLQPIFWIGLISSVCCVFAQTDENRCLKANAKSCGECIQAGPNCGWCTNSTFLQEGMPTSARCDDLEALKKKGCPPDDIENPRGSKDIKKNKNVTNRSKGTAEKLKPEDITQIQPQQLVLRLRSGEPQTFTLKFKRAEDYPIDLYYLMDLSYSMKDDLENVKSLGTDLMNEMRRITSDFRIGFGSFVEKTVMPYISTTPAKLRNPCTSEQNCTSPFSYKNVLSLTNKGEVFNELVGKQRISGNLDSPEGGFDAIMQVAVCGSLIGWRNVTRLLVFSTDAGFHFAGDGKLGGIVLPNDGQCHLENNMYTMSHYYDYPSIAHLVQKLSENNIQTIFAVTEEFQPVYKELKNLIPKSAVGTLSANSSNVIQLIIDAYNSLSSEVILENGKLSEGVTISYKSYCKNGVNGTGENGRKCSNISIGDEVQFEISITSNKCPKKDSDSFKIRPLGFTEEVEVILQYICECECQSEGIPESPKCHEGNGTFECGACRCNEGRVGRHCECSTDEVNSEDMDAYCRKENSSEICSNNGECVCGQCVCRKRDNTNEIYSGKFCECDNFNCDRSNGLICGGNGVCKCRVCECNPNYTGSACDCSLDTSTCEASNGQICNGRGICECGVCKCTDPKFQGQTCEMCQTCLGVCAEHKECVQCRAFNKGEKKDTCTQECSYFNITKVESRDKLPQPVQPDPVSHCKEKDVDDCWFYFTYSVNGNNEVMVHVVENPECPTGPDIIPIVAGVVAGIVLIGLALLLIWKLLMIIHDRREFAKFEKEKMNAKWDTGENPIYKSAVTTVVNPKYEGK
Sequence (P13612 whole entry, looked up): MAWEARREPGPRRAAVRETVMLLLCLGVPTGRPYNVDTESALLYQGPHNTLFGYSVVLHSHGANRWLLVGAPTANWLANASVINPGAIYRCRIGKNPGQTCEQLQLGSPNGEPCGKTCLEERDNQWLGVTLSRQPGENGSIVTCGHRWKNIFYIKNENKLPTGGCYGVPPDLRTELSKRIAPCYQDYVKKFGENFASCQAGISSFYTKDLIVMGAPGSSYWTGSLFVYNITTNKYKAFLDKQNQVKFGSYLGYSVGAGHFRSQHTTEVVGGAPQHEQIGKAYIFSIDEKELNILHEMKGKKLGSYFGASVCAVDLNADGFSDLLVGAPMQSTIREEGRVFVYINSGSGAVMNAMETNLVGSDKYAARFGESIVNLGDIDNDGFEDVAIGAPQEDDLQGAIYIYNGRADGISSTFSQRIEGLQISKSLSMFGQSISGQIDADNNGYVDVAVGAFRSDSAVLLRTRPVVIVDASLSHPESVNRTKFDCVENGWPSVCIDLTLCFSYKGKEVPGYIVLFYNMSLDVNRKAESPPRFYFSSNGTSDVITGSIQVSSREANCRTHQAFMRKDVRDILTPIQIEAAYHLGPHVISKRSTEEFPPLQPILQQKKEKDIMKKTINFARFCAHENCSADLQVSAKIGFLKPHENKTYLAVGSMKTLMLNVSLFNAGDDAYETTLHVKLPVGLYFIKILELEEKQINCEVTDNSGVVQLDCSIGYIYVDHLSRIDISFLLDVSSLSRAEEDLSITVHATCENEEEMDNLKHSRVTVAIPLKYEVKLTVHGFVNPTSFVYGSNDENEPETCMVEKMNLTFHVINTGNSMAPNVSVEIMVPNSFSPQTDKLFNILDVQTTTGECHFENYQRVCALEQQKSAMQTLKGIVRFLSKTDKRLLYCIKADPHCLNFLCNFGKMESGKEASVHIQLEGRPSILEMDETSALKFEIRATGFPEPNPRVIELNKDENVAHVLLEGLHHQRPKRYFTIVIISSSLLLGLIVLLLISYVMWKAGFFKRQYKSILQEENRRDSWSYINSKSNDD
Experiment: alpha4beta1 integrin LIBS antibody binding reduction – U937 cells, HUTS-21 mAb, flow cytometry, validation set, VLA-4 allosteric modulator project, pilot screen (AID 2674);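 note: antibody binding induced by the VLA-4 ligand LDV present at three times its Kd; 0% = LDV ligand with antibody and no compound and 100% = antibody without LDV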
Conditions: HUTS-21 LIBS mAb binding, at 6.7 µM, stronger effect = higher value, binding induced by LDV ligand
The source made the active and inactive calls.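 Rule for the calls: active = inhibition above 50%, about 3 SD of the validation set; inactive = the rest.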
Measured inhibition by item

compound=CC(C)(S)[C@@H](N)C(=O)O endpoint_name=inhibition assay_value="0.94% (inactive)"
compound="CCOC(=O)N1c2ccccc2C=CC1OCC (configuration not stated)" endpoint_name=inhibition assay_value="2.93% (inactive)"
compound="CC(C[N+](C)(C)C)OC(N)=O (configuration not stated)" endpoint_name=inhibition assay_value="11.7% (inactive)"
compound=CCOCC(=O)Nc1ccccc1C(=O)N1CCOCC1 endpoint_name=inhibition assay_value="-2.27% (inactive)"
compound=CC(=O)Nc1nnc(S(N)(=O)=O)s1 endpoint_name=inhibition assay_value="17.2% (inactive)"
compound=CC1=NN(c2ccccc2)C(=O)C1 endpoint_name=inhibition assay_value="-14.5% (inactive)"

The recorded inhibition for "CCN(CCCc1ccccc1)CCCc1ccccc1" is 27.8% (inactive)

====

Measured superoxide response (% of plate) by item
Assay: calorie-restriction mimetic ROS inhibitors, yeast – validation compound set, pilot screen (AID 2706);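 note: yeast exposed to compound for one week at 30 degrees C before staining; 100% = mean of all compound wells on the same plate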
Conditions: S. cerevisiae aging, superoxide DHE fluorescence; at 10 µM; stronger effect = lower value
Active and inactive are the calls of the source.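 How the source made its calls: active means superoxide response below 65% of plate, a cut near 3 SD across the whole screen; inactive means the rest.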

The recorded superoxide response (% of plate) for "O=c1nc2n(c3c1oc1ccccc13)Cc1ccccc1-2" is 93.6% (inactive)

The recorded superoxide response (% of plate) for "O=c1[nH]cnc2[nH]ncc12" is 98% (inactive)

The recorded superoxide response (% of plate) for "CCOC(=O)C1=C(C)N[C@@]2(O)c3ccccc3C(=O)[C@@]12O" is 96.8% (inactive)

The recorded superoxide response (% of plate) for "CC(=O)Nc1ccc(S(=O)(=O)c2ccc(N)cc2)cc1" is 110% (inactive)
